system: Staphylococcus aureus Smith; experiment: MIC by serial two-fold agar dilution, S. aureus Smith; type: cell-based; conditions: Staphylococcus aureus

| compound | MIC, µg/mL |
| --- | --- |
| NC[C@@H]1O[C@H](O[C@H]2[C@@H](O)[C@H](O[C@@H]3[C@@H](O)[C@H](N)C[C@H](N)[C@H]3O[C@H]3O[C@H](CN)[C@@H](O)[C@H](O)[C@H]3N)O[C@@H]2CO)[C@H](N)[C@@H](O)[C@@H]1O [Neomycin B, neomycin B] | 0.4 |
| NC[C@H]1O[C@H](O[C@H]2[C@H](O[C@@H]3O[C@H](CO)[C@@H](O[C@H]4O[C@H](CN)[C@@H](O)[C@H](O)[C@H]4N)[C@H]3O)[C@@H](O)[C@H](N)C[C@@H]2N)[C@H](N)[C@@H](O)[C@@H]1O [Neomycin C, neomycin C] | 1.6 |

----------
test system: Escherichia coli Juhl; test: MIC by serial two-fold agar dilution, E. coli Juhl; assay type: cell-based; settings: Escherichia coli; Table 7; Mueller-Hinton agar; read-out: MIC
reportedMetric: MIC (µg/mL)

| compound | reportedMetric | scaleUnit | relationOperator | observedValue |
| --- | --- | --- | --- | --- |
| NC[C@H]1O[C@H](O[C@H]2[C@H](O[C@@H]3O[C@H](CO)[C@@H](O[C@H]4O[C@@H](CO)[C@@H](O)[C@H](O)[C@H]4N)[C@H]3O)[C@@H](O)[C@H](O)C[C@@H]2N)[C@H](N)[C@@H](O)[C@@H]1O [Bu-2659D] | MIC | µg/mL | = | 50 |
| NC[C@@H]1O[C@H](O[C@H]2[C@@H](O)[C@H](O[C@@H]3[C@@H](O)[C@H](O)C[C@H](N)[C@H]3O[C@H]3O[C@H](CN)[C@@H](O)[C@H](O)[C@H]3N)O[C@@H]2CO)[C@H](N)[C@@H](O)[C@@H]1O [Bu-2659A, 1-deamino-1-hydroxyneomycin B] | MIC | µg/mL | = | 3.1 |
| NC[C@H]1O[C@H](O[C@H]2[C@H](O[C@@H]3O[C@H](CO)[C@@H](O[C@H]4O[C@H](CN)[C@@H](O)[C@H](O)[C@H]4N)[C@H]3O)[C@@H](O)[C@H](O)C[C@@H]2N)[C@H](N)[C@@H](O)[C@@H]1O [Bu-2659B, 1-deamino-1-hydroxyneomycin C] | MIC | µg/mL | = | 50 |
| NC[C@H]1O[C@H](O[C@H]2[C@H](O[C@@H]3O[C@H](CO)[C@@H](O)[C@H]3O)[C@@H](O)[C@H](O)C[C@@H]2N)[C@H](N)[C@@H](O)[C@@H]1O [Bu-2659E, 1-deamino-1-hydroxyribostamycin] | MIC | µg/mL | > | 100 |
| NC[C@@H]1O[C@H](O[C@H]2[C@@H](O)[C@H](O[C@@H]3[C@@H](O)[C@H](O)C[C@H](N)[C@H]3O[C@H]3O[C@H](CO)[C@@H](O)[C@H](O)[C@H]3N)O[C@@H]2CO)[C@H](N)[C@@H](O)[C@@H]1O [Bu-2659C, 1-deamino-1-hydroxyparomomycin I] | MIC | µg/mL | = | 25 |

----------
Recorded MIC, one value per entry.
system: Serratia marcescens A20019; test: MIC by serial two-fold agar dilution, S. marcescens A20019; type: cell-based; details: Serratia marcescens, A20019; Table 7; Mueller-Hinton agar; read-out: MIC

| compound | scaleUnit | relationOperator | MIC |
| --- | --- | --- | --- |
| NC[C@H]1O[C@H](O[C@H]2[C@H](O[C@@H]3O[C@H](CO)[C@@H](O[C@H]4O[C@H](CN)[C@@H](O)[C@H](O)[C@H]4N)[C@H]3O)[C@@H](O)[C@H](O)C[C@@H]2N)[C@H](N)[C@@H](O)[C@@H]1O [Bu-2659B, 1-deamino-1-hydroxyneomycin C] | µg/mL | = | 100 |
| NC[C@H]1O[C@H](O[C@H]2[C@H](O[C@@H]3O[C@H](CO)[C@@H](O)[C@H]3O)[C@@H](O)[C@H](O)C[C@@H]2N)[C@H](N)[C@@H](O)[C@@H]1O [Bu-2659E, 1-deamino-1-hydroxyribostamycin] | µg/mL | > | 100 |
| NC[C@@H]1O[C@H](O[C@H]2[C@@H](O)[C@H](O[C@@H]3[C@@H](O)[C@H](O)C[C@H](N)[C@H]3O[C@H]3O[C@H](CO)[C@@H](O)[C@H](O)[C@H]3N)O[C@@H]2CO)[C@H](N)[C@@H](O)[C@@H]1O [Bu-2659C, 1-deamino-1-hydroxyparomomycin I] | µg/mL | = | 6.3 |
| NC[C@@H]1O[C@H](O[C@H]2[C@@H](O)[C@H](O[C@@H]3[C@@H](O)[C@H](O)C[C@H](N)[C@H]3O[C@H]3O[C@H](CN)[C@@H](O)[C@H](O)[C@H]3N)O[C@@H]2CO)[C@H](N)[C@@H](O)[C@@H]1O [Bu-2659A, 1-deamino-1-hydroxyneomycin B] | µg/mL | = | 3.1 |
| NC[C@H]1O[C@H](O[C@H]2[C@H](O[C@@H]3O[C@H](CO)[C@@H](O[C@H]4O[C@@H](CO)[C@@H](O)[C@H](O)[C@H]4N)[C@H]3O)[C@@H](O)[C@H](O)C[C@@H]2N)[C@H](N)[C@@H](O)[C@@H]1O [Bu-2659D] | µg/mL | = | 100 |

----------
tested on: Staphylococcus aureus Smith; assay: MIC by serial two-fold agar dilution, S. aureus Smith; format: cell-based; conditions: Staphylococcus aureus; Table 7; Mueller-Hinton agar; read-out: MIC
# MIC per entry
reportedMetric: MIC (µg/mL)

| molecule | reportedMetric | observedValue |
| --- | --- | --- |
| NC[C@H]1O[C@H](O[C@H]2[C@H](O[C@@H]3O[C@H](CO)[C@@H](O[C@H]4O[C@@H](CO)[C@@H](O)[C@H](O)[C@H]4N)[C@H]3O)[C@@H](O)[C@H](O)C[C@@H]2N)[C@H](N)[C@@H](O)[C@@H]1O [Bu-2659D] | MIC | 25 |
| NC[C@@H]1O[C@H](O[C@H]2[C@@H](O)[C@H](O[C@@H]3[C@@H](O)[C@H](O)C[C@H](N)[C@H]3O[C@H]3O[C@H](CO)[C@@H](O)[C@H](O)[C@H]3N)O[C@@H]2CO)[C@H](N)[C@@H](O)[C@@H]1O [Bu-2659C, 1-deamino-1-hydroxyparomomycin I] | MIC | 6.3 |
| NC[C@@H]1O[C@H](O[C@H]2[C@@H](O)[C@H](O[C@@H]3[C@@H](O)[C@H](O)C[C@H](N)[C@H]3O[C@H]3O[C@H](CN)[C@@H](O)[C@H](O)[C@H]3N)O[C@@H]2CO)[C@H](N)[C@@H](O)[C@@H]1O [Bu-2659A, 1-deamino-1-hydroxyneomycin B] | MIC | 1.6 |
| NC[C@H]1O[C@H](O[C@H]2[C@H](O[C@@H]3O[C@H](CO)[C@@H](O)[C@H]3O)[C@@H](O)[C@H](O)C[C@@H]2N)[C@H](N)[C@@H](O)[C@@H]1O [Bu-2659E, 1-deamino-1-hydroxyribostamycin] | MIC | 50 |
| NC[C@H]1O[C@H](O[C@H]2[C@H](O[C@@H]3O[C@H](CO)[C@@H](O[C@H]4O[C@H](CN)[C@@H](O)[C@H](O)[C@H]4N)[C@H]3O)[C@@H](O)[C@H](O)C[C@@H]2N)[C@H](N)[C@@H](O)[C@@H]1O [Bu-2659B, 1-deamino-1-hydroxyneomycin C] | MIC | 3.1 |

----------
test system: Proteus mirabilis A9554; test: MIC by serial two-fold agar dilution, P. mirabilis A9554; type: cell-based; settings: Proteus mirabilis, A9554; Table 7; Mueller-Hinton agar; read-out: MIC

| compound | studyTarget | MIC / µg/mL |
| --- | --- | --- |
| NC[C@@H]1O[C@H](O[C@H]2[C@@H](O)[C@H](O[C@@H]3[C@@H](O)[C@H](O)C[C@H](N)[C@H]3O[C@H]3O[C@H](CN)[C@@H](O)[C@H](O)[C@H]3N)O[C@@H]2CO)[C@H](N)[C@@H](O)[C@@H]1O [Bu-2659A, 1-deamino-1-hydroxyneomycin B] | Proteus mirabilis A9554 | 0.8 |
| NC[C@H]1O[C@H](O[C@H]2[C@H](O[C@@H]3O[C@H](CO)[C@@H](O)[C@H]3O)[C@@H](O)[C@H](O)C[C@@H]2N)[C@H](N)[C@@H](O)[C@@H]1O [Bu-2659E, 1-deamino-1-hydroxyribostamycin] | Proteus mirabilis A9554 | 12.5 |
| NC[C@@H]1O[C@H](O[C@H]2[C@@H](O)[C@H](O[C@@H]3[C@@H](O)[C@H](O)C[C@H](N)[C@H]3O[C@H]3O[C@H](CO)[C@@H](O)[C@H](O)[C@H]3N)O[C@@H]2CO)[C@H](N)[C@@H](O)[C@@H]1O [Bu-2659C, 1-deamino-1-hydroxyparomomycin I] | Proteus mirabilis A9554 | 3.1 |
| NC[C@H]1O[C@H](O[C@H]2[C@H](O[C@@H]3O[C@H](CO)[C@@H](O[C@H]4O[C@H](CN)[C@@H](O)[C@H](O)[C@H]4N)[C@H]3O)[C@@H](O)[C@H](O)C[C@@H]2N)[C@H](N)[C@@H](O)[C@@H]1O [Bu-2659B, 1-deamino-1-hydroxyneomycin C] | Proteus mirabilis A9554 | 6.3 |
| NC[C@H]1O[C@H](O[C@H]2[C@H](O[C@@H]3O[C@H](CO)[C@@H](O[C@H]4O[C@@H](CO)[C@@H](O)[C@H](O)[C@H]4N)[C@H]3O)[C@@H](O)[C@H](O)C[C@@H]2N)[C@H](N)[C@@H](O)[C@@H]1O [Bu-2659D] | Proteus mirabilis A9554 | 6.3 |
